Reference source: patent US11109593B2

- System: southern crabgrass
- assay-method-text: Test Example 4: herbicidal effect test by treatment of leave and stem in dry field farming (seven days after seeding)
- Format: in vivo
- experimental-parameters: Digitaria ciliaris, 336 h; 120 g/10a active ingredient; emulsion sprayed seven days after seeding; evaluated 14 days after treatment; read-out: herbicidal effect (herbicidal rate), southern crabgrass
observable: pest or weed control at 1200 g/ha (%)
Express your answer in %, writing the number without its unit.

The examples below pair each entry with its known result.
compound	endpoint-result
CC(=O)N(c1ccccc1Cc1c(C)n(CC(C)C)oc1=O)S(=O)(=O)C(F)(F)F [Compound 1-297]	60
Cc1c(Cc2ccccc2N(S(=O)(=O)C(F)(F)F)S(=O)(=O)C(F)(F)F)c(=O)on1CC(C)C [Compound 1-967]	0
COCC(C)n1oc(=O)c(Cc2ccccc2N(S(=O)(=O)C(F)(F)F)S(=O)(=O)C(F)(F)F)c1C (stereo not drawn) [Compound 1-997]	40
Cc1c(Cc2ccccc2N(S(=O)(=O)C(F)(F)F)S(=O)(=O)C(F)(F)F)c(=O)on1C(C)(C)C [Compound 1-963]	90
COCC(C)n1oc(=O)c(Cc2ccccc2NS(=O)(=O)C(F)(F)F)c1C (stereo not drawn) [Compound 1-149]	90

Request: Tell me pest or weed control at 1200 g/ha reported for CCC(C)n1oc(=O)c(Cc2ccccc2N(S(=O)(=O)C(F)(F)F)S(=O)(=O)C(F)(F)F)c1C (stereo not drawn) [Compound 1-964]
Result: 60

Request: Tell me pest or weed control at 1200 g/ha reported for Cc1c(Cc2ccccc2NS(=O)(=O)C(F)(F)F)c(=O)on1CC(C)C [Compound 1-105]
Result: 50

Request: Tell me pest or weed control at 1200 g/ha reported for CCC(C)n1oc(=O)c(Cc2ccccc2N(C(=O)OC)S(=O)(=O)C(F)(F)F)c1C (stereo not drawn) [Compound 1-577]
Result: 90

Request: Tell me pest or weed control at 1200 g/ha reported for CCC(C)n1oc(=O)c(Cc2ccccc2NS(=O)(=O)C(F)(F)F)c1C (stereo not drawn) [Compound 1-102]
Result: 80

---

- System: Amaranthus viridis
- assay-method-text: Test Example 4: herbicidal effect test by treatment of leave and stem in dry field farming (seven days after seeding)
- Type: in vivo
- experimental-parameters: 120 g/10a active ingredient; emulsion sprayed seven days after seeding; evaluated 14 days after treatment
Listed here: items and their measured herbicidal effect (herbicidal rate), Amaranthus viridis.
Express your answer in %, writing the number without its unit.

The examples below pair each entry with its known result.
molecule	endpoint-result
CCC(C)n1oc(=O)c(Cc2ccccc2N(S(C)(=O)=O)S(=O)(=O)C(F)(F)F)c1C (stereo not shown) [Compound 1-890]	40
Cc1c(Cc2ccccc2N(S(=O)(=O)C(F)(F)F)S(=O)(=O)C(F)(F)F)c(=O)on1CCC(C)C [Compound 1-974]	40
CSCCCn1oc(=O)c(Cc2ccccc2N(S(=O)(=O)C(F)(F)F)S(=O)(=O)C(F)(F)F)c1C [Compound 1-1003]	40
CCC(CC)n1oc(=O)c(Cc2ccccc2N(C(=O)C2CC2)S(=O)(=O)C(F)(F)F)c1C [Compound 1-405]	40
Cc1c(Cc2ccccc2NS(=O)(=O)C(F)(F)F)c(=O)on1Cc1ccccc1 [Compound 1-180]	0

Request: Tell me herbicidal effect (herbicidal rate), Amaranthus viridis reported for Cc1c(Cc2ccccc2N(C(=O)OCC(C)C)S(=O)(=O)C(F)(F)F)c(=O)on1C(C)(C)C [Compound 1-668]
Result: 40

Request: Tell me herbicidal effect (herbicidal rate), Amaranthus viridis reported for Cc1c(Cc2ccccc2NS(=O)(=O)C(F)(F)F)c(=O)on1C(C)C [Compound 1-100]
Result: 30

---

- Test system: Chenopodium album
- assay-method-text: Test Example 3: herbicidal effect test by treatment of dry field farming soil (one day after seeding)
- Format: in vivo
- experimental-parameters: 120 g/10a active ingredient, evaluated 14 days after treatment
observable: herbicidal rate, Chenopodium album (%)
Express your answer in %, writing the number without its unit.

The examples below pair each entry with its known result.
compound	herbicidal rate, Chenopodium album, %
Cc1c(Cc2ccc(Cl)cc2NS(=O)(=O)C(F)(F)F)c(=O)on1C(C)C	40
Cc1c(Cc2ccccc2N(C(=O)C(C)C)S(=O)(=O)C(F)(F)F)c(=O)on1C(C)c1ccccc1 (stereo not shown)	90
CCC(=O)N(c1ccccc1Cc1c(C)n(C(C)(C)C)oc1=O)S(=O)(=O)C(F)(F)F	90

Request: Tell me herbicidal rate, Chenopodium album reported for `Cc1c(Cc2ccccc2N(S(=O)(=O)C(F)(F)F)S(=O)(=O)C(F)(F)F)c(=O)on1CCC(C)C`
Result: 100

---

- Tested on: broad leaf weeds (Lindernia pyxidaria and Monochoria vaginalis)
- assay-method-text: Test Example 1: herbicidal effect test by treatment of rice paddy soil (immediately after seeding)
- Type: in vivo
- experimental-parameters: Monochoria vaginalis, 120 g/10a active ingredient, dry weight vs untreated area, 14 days after treatment
observable: Herbicidal rate (%) Monochoria vaginalis
Express your answer in %, writing the number without its unit.

The examples below pair each entry with its known result.
compound	observable	endpoint-result
CCC(C)n1oc(=O)c(Cc2ccccc2N(C(=O)c2ccc(Cl)cc2)S(=O)(=O)C(F)(F)F)c1C (centres unmarked) [Compound 1-484]	Herbicidal rate (%) Monochoria vaginalis	90
Cc1c(Cc2ccccc2N(S(=O)(=O)C(F)(F)F)S(=O)(=O)C(F)(F)F)c(=O)on1Cc1cccc(F)c1 [Compound 1-1013]	Herbicidal rate (%) Monochoria vaginalis	90
CCC(CC)n1oc(=O)c(Cc2ccccc2N(S(=O)(=O)C(F)(F)F)S(=O)(=O)C(F)(F)F)c1C [Compound 1-965]	Herbicidal rate (%) Monochoria vaginalis	100
CCOC(=O)N(c1ccccc1Cc1c(C)n(CCSC)oc1=O)S(=O)(=O)C(F)(F)F [Compound 1-620]	Herbicidal rate (%) Monochoria vaginalis	90

We next turn to a different compound, shown below.
Request: Tell me Herbicidal rate (%) Monochoria vaginalis reported for COCC(C)n1oc(=O)c(Cc2ccccc2N(C(=O)C2CCCCC2)S(=O)(=O)C(F)(F)F)c1C (centres unmarked) [Compound 1-434]
Result: 90

---

Listed here: items and their measured Herbicidal rate (%) Echinochloa crus-galli.
- Tested on: Echinochloa crus-galli
- assay-method-text: Test Example 2: herbicidal effect test by treatment during growing period in paddy rice cultivation (seven days after seeding)
- Assay type: in vivo
- experimental-parameters: 120 g/10a active ingredient, assessed 14 days after treatment, dry weight vs untreated area
Express your answer in %, writing the number without its unit.

compound	endpoint-result
CCC(=O)N(c1ccccc1Cc1c(C)n(CC(C)(C)C)oc1=O)S(=O)(=O)C(F)(F)F	90
Cc1c(Cc2ccccc2NS(=O)(=O)C(F)(F)F)c(=O)on1CCOc1ccccc1	90
CCC(C)Cn1oc(=O)c(Cc2ccccc2N(C(=O)OCCOC)S(=O)(=O)C(F)(F)F)c1C (stereo not drawn)	100
CCS(=O)(=O)N(c1ccccc1Cc1c(C)n(C(C)COC)oc1=O)S(=O)(=O)C(F)(F)F (stereo not drawn)	90
CC(C)c1c(Cc2ccccc2N(S(=O)(=O)C(F)(F)F)S(=O)(=O)C(F)(F)F)c(=O)on1C(C)C	60

Request: Tell me Herbicidal rate (%) Echinochloa crus-galli reported for `COC(=O)N(c1ccccc1Cc1c(C)n(C(C)(C)C)oc1=O)S(=O)(=O)C(F)(F)F`
Result: 90

Request: Tell me Herbicidal rate (%) Echinochloa crus-galli reported for `Cc1c(Cc2ccccc2NS(=O)(=O)C(F)(F)F)c(=O)on1CC(F)(F)F`
Result: 80

Request: Tell me Herbicidal rate (%) Echinochloa crus-galli reported for Cc1c(Cc2ccccc2N(S(=O)(=O)C(F)(F)F)S(=O)(=O)C(F)(F)F)c(=O)on1C(C)c1cccc(Cl)c1 (stereo not drawn)
Result: 70

Request: Tell me Herbicidal rate (%) Echinochloa crus-galli reported for CCC(=O)N(c1ccccc1Cc1c(C)n(C(C)COC)oc1=O)S(=O)(=O)C(F)(F)F (stereo not drawn)
Result: 90

Request: Tell me Herbicidal rate (%) Echinochloa crus-galli reported for `Cc1c(Cc2ccccc2N(C(=O)Cc2ccccc2)S(=O)(=O)C(F)(F)F)c(=O)on1C(C)(C)C`
Result: 90

Request: Tell me Herbicidal rate (%) Echinochloa crus-galli reported for CCC(C)Cn1oc(=O)c(Cc2ccccc2N(C(=O)OCc2ccccc2)S(=O)(=O)C(F)(F)F)c1C (single isomer, unassigned) [1-788 (TLC top)]
Result: 40

Request: Tell me Herbicidal rate (%) Echinochloa crus-galli reported for `CSCCn1oc(=O)c(Cc2ccccc2NS(=O)(=O)C(F)(F)F)c1C`
Result: 90

Request: Tell me Herbicidal rate (%) Echinochloa crus-galli reported for `Cc1c(Cc2ccccc2N(C(=O)OCC(C)C)S(=O)(=O)C(F)(F)F)c(=O)on1C(C)C`
Result: 90

Request: Tell me Herbicidal rate (%) Echinochloa crus-galli reported for CCC(=O)N(c1ccccc1Cc1c(C)n(C(C)CC)oc1=O)S(=O)(=O)C(F)(F)F (stereo not drawn)
Result: 90

Request: Tell me Herbicidal rate (%) Echinochloa crus-galli reported for `Cc1c(Cc2ccccc2NS(=O)(=O)C(F)(F)F)c(=O)on1CCOCC(C)C`
Result: 80
